The measurements presented in this section are drawn from ChEMBL document CHEMBL5726250.

# subject.of.test: 5'-AMP-activated protein kinase catalytic subunit alpha-2 (Homo sapiens)
# Sequence (P54646 whole entry): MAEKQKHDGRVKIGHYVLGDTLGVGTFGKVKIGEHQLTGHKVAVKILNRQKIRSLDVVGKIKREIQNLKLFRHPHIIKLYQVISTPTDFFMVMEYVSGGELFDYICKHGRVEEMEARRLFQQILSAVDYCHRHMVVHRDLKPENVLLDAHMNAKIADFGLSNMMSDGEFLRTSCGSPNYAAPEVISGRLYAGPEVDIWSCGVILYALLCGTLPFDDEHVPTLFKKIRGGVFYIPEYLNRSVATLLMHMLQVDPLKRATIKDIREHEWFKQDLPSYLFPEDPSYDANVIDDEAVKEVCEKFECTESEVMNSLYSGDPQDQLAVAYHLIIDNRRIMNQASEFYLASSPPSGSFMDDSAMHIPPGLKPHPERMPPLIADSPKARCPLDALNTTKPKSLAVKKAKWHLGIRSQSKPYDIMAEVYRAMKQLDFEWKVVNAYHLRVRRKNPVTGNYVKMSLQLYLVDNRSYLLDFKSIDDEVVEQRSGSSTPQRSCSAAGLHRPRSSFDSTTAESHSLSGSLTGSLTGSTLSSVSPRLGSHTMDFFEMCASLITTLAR
# method.description: Enzyme-Linked Immunosorbent Assay: Compounds were assayed for their ability to activate AMPK using an enzyme-linked immunosorbent assay. Reagents and procedures for measuring AMPK activation are well known and kits for AMPK activation assays are commercially available.
pEC50: −log10 of the molar value.
endpoint.name: pEC50

Give pEC50; test system 5'-AMP-activated protein kinase catalytic subunit alpha-2 (Homo sapiens); molecule O=C(Nc1ccccc1-c1ccccc1)c1ccc(C(=O)N2CCN(Cc3ccc(F)cc3)CC2)cn1 < 5.00

Give pEC50; test system 5'-AMP-activated protein kinase catalytic subunit alpha-2 (Homo sapiens); molecule O=C(Nc1ccc(-c2ccc([N+](=O)[O-])cc2)cc1)c1ccc(C(=O)N2CCN(Cc3ccc(F)cc3)CC2)cn1 < 5.00
